SYSTEM NAME: T1, HLA-A*01:01 (human, biotinylated heavy chain)
T1 construct: Conditional HLA class I complex whose UV-labile peptide is exchanged for the test peptide
PROCEDURE SUMMARY: UV-induced peptide exchange, HLA class I ELISA; Pos peptide = 100%;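 also: Streptavidin-captured biotinylated HLA class I complexes detected by HRP-conjugated anti-human B2M antibody, absorbance readout of intact complex amount after exchange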
PROPERTY MEASURED: exchange rate with Pos peptide (%)
// note: answer is a bare numeric in %

Request: Which measured exchange rate with Pos peptide value corresponds to NMVENGCYL (9-mer fragment of neoantigen P59; synthetic peptide) [P59 9-mer NMVENGCYL] ?
Response: 2.2

Request: Now consider IQYSCMGLM (9-mer fragment of neoantigen P50; synthetic peptide) [P50 9-mer IQYSCMGLM] and answer again.
Response: 2.3
